Quick note: these are IC50 numbers for system: purified human HDAC6 (Homo sapiens)

Query string: Name the value of IC50 reported for `CC(C)c1ccc(S(=O)(=O)N2CCc3cc(C(=O)NO)ccc3C2)cc1` when tested on purified human HDAC6 (Homo sapiens).
Result string: 100 to 500 nM

====

Target: purified human HDAC6 (Homo sapiens)
Sequence (Q9UBN7 1-1215): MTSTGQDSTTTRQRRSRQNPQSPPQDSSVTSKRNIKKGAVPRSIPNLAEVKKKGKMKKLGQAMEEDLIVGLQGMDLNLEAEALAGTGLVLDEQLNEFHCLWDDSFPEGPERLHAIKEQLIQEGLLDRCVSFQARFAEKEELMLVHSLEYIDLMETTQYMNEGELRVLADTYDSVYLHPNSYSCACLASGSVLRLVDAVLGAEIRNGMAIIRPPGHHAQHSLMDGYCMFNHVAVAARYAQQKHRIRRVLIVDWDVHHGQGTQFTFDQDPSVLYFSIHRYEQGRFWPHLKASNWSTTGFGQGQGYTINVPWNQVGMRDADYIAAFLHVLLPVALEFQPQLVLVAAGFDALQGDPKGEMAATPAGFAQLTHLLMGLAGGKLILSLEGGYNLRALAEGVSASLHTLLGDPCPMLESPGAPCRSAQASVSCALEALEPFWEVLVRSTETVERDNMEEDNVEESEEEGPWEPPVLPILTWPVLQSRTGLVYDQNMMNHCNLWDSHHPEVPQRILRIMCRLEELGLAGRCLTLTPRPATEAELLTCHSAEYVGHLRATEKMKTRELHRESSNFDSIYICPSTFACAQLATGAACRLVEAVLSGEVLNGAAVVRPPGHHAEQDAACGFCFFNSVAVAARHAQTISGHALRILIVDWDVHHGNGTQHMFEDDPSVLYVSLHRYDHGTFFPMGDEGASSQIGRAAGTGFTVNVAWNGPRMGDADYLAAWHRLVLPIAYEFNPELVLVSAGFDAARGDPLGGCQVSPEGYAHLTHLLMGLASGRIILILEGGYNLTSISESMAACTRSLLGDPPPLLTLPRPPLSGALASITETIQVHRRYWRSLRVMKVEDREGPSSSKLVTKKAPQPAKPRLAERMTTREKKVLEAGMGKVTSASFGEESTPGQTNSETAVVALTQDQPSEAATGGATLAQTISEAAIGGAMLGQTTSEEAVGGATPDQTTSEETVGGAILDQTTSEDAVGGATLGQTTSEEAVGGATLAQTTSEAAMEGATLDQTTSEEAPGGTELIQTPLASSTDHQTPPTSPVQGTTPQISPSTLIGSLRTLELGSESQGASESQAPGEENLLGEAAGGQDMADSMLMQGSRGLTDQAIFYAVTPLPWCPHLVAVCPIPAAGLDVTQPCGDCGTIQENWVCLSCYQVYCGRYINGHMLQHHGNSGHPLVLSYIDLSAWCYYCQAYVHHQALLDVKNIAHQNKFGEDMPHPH
Each record here notes measured IC50.

Query string: Name the value of IC50 reported for CC1(C(=O)N2CCc3cc(C(=O)NO)ccc3C2)CCCCC1 [Compound 28] when tested on purified human HDAC6 (Homo sapiens).
Result string: 100 to 500 nM

Query string: Name the value of IC50 reported for O=C(NO)c1ccc2c(c1)CCN(Cc1ccc(-n3cccn3)cc1)C2 [Compound 68] when tested on purified human HDAC6 (Homo sapiens).
Result string: 100 to 500 nM

Query string: Name the value of IC50 reported for O=C(NO)c1ccc2c(c1)CCN(Cc1ccc(-n3cncn3)cc1)C2 [Compound 59] when tested on purified human HDAC6 (Homo sapiens).
Result string: 100 to 500 nM

Query string: Name the value of IC50 reported for CC(C)(C)c1ccc(C(=O)N2CCCc3cc(C(=O)NO)ccc3C2)cc1 [Compound 238] when tested on purified human HDAC6 (Homo sapiens).
Result string: 100 to 500 nM

Query string: Name the value of IC50 reported for O=C(NO)c1ccc2c(c1)CCCN(C(=O)c1cnc3ccccc3n1)C2 [Compound 243] when tested on purified human HDAC6 (Homo sapiens).
Result string: 100 to 500 nM

Attention now turns to another entry.
Query string: Name the value of IC50 reported for Cc1noc(C)c1CC(=O)N1CCc2cc(C(=O)NO)ccc2C1 [Compound 16] when tested on purified human HDAC6 (Homo sapiens).
Result string: 50 to 100 nM

====

pIC50: −log10 of the molar value.
Quick note: these are pIC50 numbers for system: purified human HDAC6 (Homo sapiens)

Query string: Name the value of pIC50 reported for `O=C(NO)c1ccc2c(c1)CCN(C(=O)Nc1ccc(-c3ccccc3)s1)C2` when tested on purified human HDAC6 (Homo sapiens).
Result string: > 7.30

New cases:
Query string: Name the value of pIC50 reported for `Cn1ccc(C(=O)N2CCCc3cc(C(=O)NO)ccc3C2)n1` when tested on purified human HDAC6 (Homo sapiens).
Result string: < 6.30

Query string: Name the value of pIC50 reported for `O=C(NO)c1ccc2c(c1)CCCN(C(=O)c1cccc3ccccc13)C2` when tested on purified human HDAC6 (Homo sapiens).
Result string: 6.30 to 7.00

Query string: Name the value of pIC50 reported for `C[C@H](C(=O)N1CCc2cc(C(=O)NO)ccc2C1)c1ccccc1` when tested on purified human HDAC6 (Homo sapiens).
Result string: 7.00 to 7.30

Query string: Name the value of pIC50 reported for `O=C(NO)c1ccc2c(c1)CCN(Cc1ccc(C(F)(F)F)cc1)C2` when tested on purified human HDAC6 (Homo sapiens).
Result string: 6.30 to 7.00

====

target: purified human HDAC6 (Homo sapiens, UniProt Q9UBN7)
propertyName: IC50

Query string: Name the value of IC50 reported for Cc1n[nH]c(C)c1S(=O)(=O)N1CCc2cc(C(=O)NO)ccc2C1 [Compound 54] when tested on purified human HDAC6 (Homo sapiens, UniProt Q9UBN7).
Result string: 50 to 100 nM

Query string: Name the value of IC50 reported for O=C(NO)c1ccc2c(c1)CCN(C(=O)C1CCCCC1)C2 [Compound 5] when tested on purified human HDAC6 (Homo sapiens, UniProt Q9UBN7).
Result string: 50 to 100 nM

Query string: Name the value of IC50 reported for O=C(NO)c1ccc2c(c1)CCCN(C(=O)Cc1cc(C(F)(F)F)cc(C(F)(F)F)c1)C2 [Compound 236] when tested on purified human HDAC6 (Homo sapiens, UniProt Q9UBN7).
Result string: > 500 nM

New cases:
Query string: Name the value of IC50 reported for O=C(NO)c1ccc2c(c1)CCCN(C(=O)c1cnc3ccccc3c1)C2 [Compound 255] when tested on purified human HDAC6 (Homo sapiens, UniProt Q9UBN7).
Result string: 100 to 500 nM

Query string: Name the value of IC50 reported for O=C(NO)c1ccc2c(c1)CCN(C(=O)c1ccc(-n3cccc3)cc1)C2 [Compound 14] when tested on purified human HDAC6 (Homo sapiens, UniProt Q9UBN7).
Result string: 50 to 100 nM

====

Target: purified human HDAC6 (Homo sapiens)
Sequence (Q9UBN7 1-1215): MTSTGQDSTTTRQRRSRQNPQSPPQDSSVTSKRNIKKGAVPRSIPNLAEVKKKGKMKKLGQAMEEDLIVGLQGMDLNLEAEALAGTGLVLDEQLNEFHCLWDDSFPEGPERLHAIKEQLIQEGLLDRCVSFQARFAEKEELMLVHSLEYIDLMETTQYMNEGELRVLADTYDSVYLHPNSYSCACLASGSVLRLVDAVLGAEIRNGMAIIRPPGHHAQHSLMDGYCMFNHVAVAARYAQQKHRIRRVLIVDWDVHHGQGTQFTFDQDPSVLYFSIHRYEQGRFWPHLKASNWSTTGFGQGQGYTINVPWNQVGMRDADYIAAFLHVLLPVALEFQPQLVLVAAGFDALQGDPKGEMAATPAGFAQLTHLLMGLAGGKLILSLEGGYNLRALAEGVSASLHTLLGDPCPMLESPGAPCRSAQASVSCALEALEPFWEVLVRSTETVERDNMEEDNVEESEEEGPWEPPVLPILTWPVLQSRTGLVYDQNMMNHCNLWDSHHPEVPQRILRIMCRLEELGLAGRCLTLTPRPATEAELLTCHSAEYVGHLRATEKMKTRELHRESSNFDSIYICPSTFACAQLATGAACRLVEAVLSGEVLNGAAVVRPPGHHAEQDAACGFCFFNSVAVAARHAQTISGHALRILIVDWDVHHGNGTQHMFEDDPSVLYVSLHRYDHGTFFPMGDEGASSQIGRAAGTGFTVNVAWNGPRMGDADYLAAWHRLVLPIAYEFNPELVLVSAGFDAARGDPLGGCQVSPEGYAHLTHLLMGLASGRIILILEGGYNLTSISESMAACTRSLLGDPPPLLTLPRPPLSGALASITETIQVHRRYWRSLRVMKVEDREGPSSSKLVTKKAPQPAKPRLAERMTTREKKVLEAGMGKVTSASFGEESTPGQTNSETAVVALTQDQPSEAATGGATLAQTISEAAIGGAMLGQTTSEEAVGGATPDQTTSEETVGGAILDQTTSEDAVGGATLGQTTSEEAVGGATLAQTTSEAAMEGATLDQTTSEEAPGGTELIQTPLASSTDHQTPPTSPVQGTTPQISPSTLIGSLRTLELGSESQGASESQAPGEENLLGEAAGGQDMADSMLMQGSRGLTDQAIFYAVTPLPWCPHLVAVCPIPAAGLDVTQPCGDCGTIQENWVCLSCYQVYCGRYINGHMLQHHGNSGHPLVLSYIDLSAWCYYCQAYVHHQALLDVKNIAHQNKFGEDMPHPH
pIC50: −log10 of the molar value.
propertyName: pIC50

Look over these answered cases.
Query string: Query pIC50 for CC(NC(=O)N1CCc2cc(C(=O)NO)ccc2C1)c1cccc2ccccc12 (stereo not shown)
Result string: > 7.30

Query string: Query pIC50 for `O=C(NO)c1ccc2c(c1)CCCN(C(=O)c1c(F)cc(F)cc1F)C2`
Result string: 6.30 to 7.00

Query string: Query pIC50 for `O=C(NO)c1ccc2c(c1)CCN(CCOc1ccc(Cl)cc1)C2`
Result string: 6.30 to 7.00

Query string: Query pIC50 for `CC(C)c1ccc(CC(=O)N2CCc3cc(C(=O)NO)ccc3C2)cc1`
Result string: 6.30 to 7.00

Query string: Query pIC50 for `O=C(NO)c1ccc2c(c1)CCN(S(=O)(=O)c1ccc(F)cc1)C2`
Result string: 6.30 to 7.00

New cases:
Query string: Query pIC50 for C=CC(C)C(=O)N1CCc2cc(C(=O)NO)ccc2C1 (stereo not shown)
Result string: 7.00 to 7.30

Query string: Query pIC50 for CC(C)C(C(=O)N1CCc2cc(C(=O)NO)ccc2C1)c1ccccc1 (stereo not shown)
Result string: > 7.30

Query string: Query pIC50 for `COc1ccc(S(=O)(=O)N2CCc3cc(C(=O)NO)ccc3C2)cc1`
Result string: > 7.30

Query string: Query pIC50 for `O=C(NO)c1ccc2c(c1)CCCN(C(=O)Cc1csc3ccc(Cl)cc13)C2`
Result string: 6.30 to 7.00

Query string: Query pIC50 for `CCCS(=O)(=O)N1CCc2cc(C(=O)NO)ccc2C1`
Result string: 6.30 to 7.00

Query string: Query pIC50 for `CC(C)(C)c1ccc(S(=O)(=O)N2CCc3cc(C(=O)NO)ccc3C2)cc1`
Result string: 7.00 to 7.30

Query string: Query pIC50 for `O=C(NO)c1ccc2c(c1)CCN(C(=O)Nc1ccc3c(c1)CCO3)C2`
Result string: > 7.30
